- Tested on: SK-MEL-2 melanoma
- measurement.description: NCI-60 one-dose screen, 48 h
- experimental.context: 10 µM unless noted
About 83,000 compounds went through this panel and 20% of them were active in at least one assay; those are over-represented in the sample as a whole. The source made the active and inactive calls. Rule for the calls: active = growth percent below 10; inactive = the rest.
Labels: label 1 = active, label 0 = inactive

compound | assigned.label
O=C(C1CCCCC1)[C@@H]1[C@]2(C(=O)NC3CCCCC32)[C@@H]2CCCN2[C@@]12C(=O)NC1CCC(Cl)CC12 (some centres not stated) | label 1
O=C(Nc1cc(Cl)ccc1O)c1cccc(Nc2ccnc(C(F)(F)F)c2)c1 | label 0
CCc1n(Cc2ccc3ccccc3n2)cc[n+]1Cc1ccc2ccccc2n1 | label 1
COc1ccc2c(c1)CCc1[nH]nc(-c3cc(OC)c(OC)c(OC)c3)c1-2 | label 0
CCN1C(=O)N(CC)C2C1NC(=S)N2/N=C/c1ccc(C(F)(F)F)cc1 (configuration not stated) | label 0
COc1cccc(-c2cc(-c3cccc(Cl)c3)c(C#N)c(=O)[nH]2)c1 | label 0
CCn1c(-c2cc3c([nH]c4ccccc43)c(-c3cccc(O)c3)n2)n[nH]c1=S | label 1
C=C(CNCCO)[C@@H]1CC[C@]2(CO)CC[C@]3(C)[C@H](CC[C@@H]4[C@@]5(C)CCC(N)C(C)(C)[C@@H]5CC[C@]43C)[C@@H]12 (some centres not stated) | label 1
O=C1c2ccccc2C(=O)c2c1c(C(=O)NCc1ccccc1)c1ccccn21 | label 0
Cc1ccc(-c2nc(N3CCNCC3)c3oc(-c4ccc(C)cc4)nc3n2)cc1 | label 0
[2H]C([2H])([2H])Oc1ccc(F)cc1/C=C/C(=O)/C=C(O)/C=C/c1cc(F)ccc1OC([2H])([2H])[2H] | label 0
CCn1cc(CNc2ccc(C(=O)Nc3cc4cc(OC)c(OC)cc4c(C)n3)cc2)cn1 | label 0
CN1CCN(C(=O)C(C)(C)c2ccc(C(=O)Nc3cn4cc(-c5ccncc5)ccc4n3)cc2)CC1 | label 1
COc1ccc(/C=C/C(=O)c2cc(OC)c(OC)c(OC)c2)cc1OCC(=O)Nc1nc2ccc(OC(F)(F)F)cc2s1 | label 0
N#C/C(=C\c1cn(Cc2ccccc2)c2ccccc12)C(=O)Nc1ncc(Cc2ccccc2Cl)s1 | label 0
C#CC#CC#CC#CC#CC#CC#CC#CC[C@@H]1OC[C@@H](COC(=O)O[C@@H](C(=O)O[C@H]2C[C@@]3(O)[C@@H](OC(=O)c4ccccc4)[C@@H]4[C@]5(OC(C)=O)CO[C@@H]5C[C@H](O)[C@@]4(C)C(=O)[C@H](OC(C)=O)C(=C2C)C3(C)C)[C@@H](NC(=O)c2ccccc2)c2ccccc2)O1 | label 0
O=C(O)[C@@H](Cc1ccc2ccccc2c1)NC(=O)n1c2ccccc2c2ccccc21 | label 0

----------
- Tested on: MALME-3M melanoma
- measurement.description: NCI-60 one-dose screen, 48 h (100 = growth as untreated, 0 = no growth, -100 = all killed)
- experimental.context: 10 µM unless noted
About 83,000 compounds went through this panel and 20% of them were active in at least one assay; those are over-represented in the sample as a whole.
Doc: threshold 70% (exclusive). Items with growth beneath it return yes (1); others return no (0).

compound | assigned.label
O=C(CN1CCN(c2cc3c(cc2F)c(=O)c(C(=O)O)cn3C2CC2)CC1)N/N=C/c1ccco1 | no (0)
CCOC(=O)C#Cc1c(C(=O)OCC)nnn1Cc1ccc(C(F)(F)F)cc1 | no (0)
Cc1cc(Nc2ccc(C(=O)N3CCCC3)cc2)nc(NCCCNc2ccnc3cc(Cl)ccc23)n1 | yes (1)
CCOC(=O)/C=C1\S/C(=N\Nc2cc(=O)[nH]c3ccccc23)N(c2ccccc2)C1=O | no (0)
CN(C)CCCC1(c2ccc(F)cc2)OCc2cc(-c3ccc4cc[nH]c4c3)ccc21 (stereo not given) | yes (1)

----------
- Test system: MDA-MB-435 melanoma
- measurement.description: NCI-60 one-dose screen, 48 h (100 = growth as untreated, 0 = no growth, -100 = all killed)
- experimental.context: 10 µM unless noted
This is part of a sample that, as a whole, favours compounds with a hit. Of some 83,000 tested, about 20% had one in any assay.
Assign labels as follows, please: T for growth below 70%; F for growth equal to or exceeding 70%.

compound | target.entity | assigned.label
COc1ccc2c(c1)c(-c1nc(-c3c[nH]c4ncccc34)cs1)cn2CCO | MDA-MB-435 melanoma | T
Cn1ccc(=O)nc1 | MDA-MB-435 melanoma | F
CCN1C(=O)N(CC)C2C1NN=c1s/c(=C3\C(=O)N(CCC(C)C)c4ccccc43)c(=O)n12 (stereo not given) | MDA-MB-435 melanoma | T
N#Cc1cccc(C2C3=C(COC3=O)N(CCO)c3cc4c(cc32)CCC4)c1 (stereo not given) | MDA-MB-435 melanoma | T
COc1ccc2nc(Cl)c(/C=C3\CC(c4ccccc4)=NN(c4ccccc4)C3=O)cc2c1 | MDA-MB-435 melanoma | F

----------
- System: COLO 205 colon
- measurement.description: NCI-60 one-dose screen, 48 h
- experimental.context: 10 µM unless noted
Compounds without any hit were thinned out: in the full panel of roughly 83,000, 20% have a hit. Activity calls are given as the source filed them. Rule for the calls: active = growth percent below 10; inactive = the rest.
Outcome codes: T (active), F (inactive)

compound | assigned.label
O=c1c2ccccc2c(=O)c2c1sc1c(=O)c3ccc(O)cc3c(=O)c12 | T
O=C(/C=C/c1cccc(Cl)c1Cl)Nc1ncc(Cc2ccccc2Cl)s1 | F
CCN(CC)c1ccc(CNc2cc(C)nc3ccccc23)cc1 | T
CCN1C(=O)N(CC)C2C1NC(=S)N2/N=C/c1ccc(C(F)(F)F)cc1 (stereo not given) | F
CC(C)CCN(CCC(C)C)CC(O)c1cc2c(c3ccccc13)CCCC2 (stereo not given) | F
Cc1cc2c(cc1C)N(C(=O)CCl)CC(=O)N2 | T
C=C(c1ccc(OC)c(/C=C/C(=O)c2ccc3c(c2)OCO3)c1)c1cc(OC)c(OC)c(OC)c1 | T
CN(C)CCCC1(c2ccc(F)cc2)OCc2cc(-c3ccc4cc[nH]c4c3)ccc21 (stereo not given) | T
COc1cc(NC(=O)c2cncnc2Nc2ccc3c(ccn3Cc3ccccn3)c2)cc(OC)c1 | F
NNCCc1ccc(NC(=O)CCCc2ccc(C(=O)Nc3ccccc3N)cc2)cc1 | F

----------
- Test system: SF-268 CNS
- measurement.description: NCI-60 one-dose screen, 48 h
- experimental.context: 10 µM unless noted
Compounds without any hit were thinned out: in the full panel of roughly 83,000, 20% have a hit. Activity calls are given as the source filed them. How the source made its calls: active means growth percent below 10; inactive means the rest.
Outcome codes: active, inactive

compound | assigned.label
CCc1ccc(CCC(=O)Nc2ncc(Cc3ccccc3)s2)o1 | inactive
c1nc2ccc(-c3cc4ccc5[nH]ncc5c4c4c3CCCC4)cc2[nH]1 | inactive
CS(=O)(=O)c1nnc(-c2ccccc2)s1 | inactive
C#CCn1cnc2cnc(Nc3cccc(NC(=O)C=C)c3)nc21 | inactive
O=c1nc(-c2ccccc2)c2cc(-c3ccc(C(F)(F)F)nc3)ccc2[nH]1 | inactive
NC(=O)c1cccc([C@@H]2O[C@H](CO)[C@@H](O)[C@H]2O)c1 | inactive
O=C(CCCCCCN1CC(=O)N2[C@H](c3ccc(Br)cc3)c3[nH]c4ccccc4c3C[C@@H]2C1=O)NO | inactive
CCOc1cccc(/C=N/NC(=O)c2cccc(Nc3ccnc(C(F)(F)F)c3)c2)c1O | inactive
O=C(Nc1cc(Cl)ccc1O)c1cccc(Nc2ccnc(C(F)(F)F)c2)c1 | inactive
NC(=O)c1c(NC(=O)c2cccs2)sc2c1CCC(=O)C2 | inactive
COC(=O)c1cc(Br)ccc1O | inactive
FC(F)(F)Oc1cccc(-c2cnc3ccc(-c4ccncc4)nn23)c1 | inactive
CCNc1nc(O)c(/C=C2\C=Nc3ncccc32)s1 | active
COc1ccc(/C=C/C(=O)c2cc3c(N)c(C(=O)Nc4cccc(Cl)c4C)sc3nc2C)cc1 | inactive
c1ccc2c(c1)CCCc1nnc3nc4ccccc4n3c1-2 | inactive
CCn1cc(CNc2ccc(C(=O)Nc3cc4cc(OC)c(OC)cc4c(C)n3)cc2)cn1 | inactive
CC1=C2[C@@H](CC1)[C@]1(C)O[C@@](C3CCCCC3)(C[C@H]1OC(=O)CO)[C@H]2OC(=O)/C=C/c1ccccc1 | inactive
O=C(CI)NC(=O)NC(=O)NCc1ccccc1 | inactive
CCCCNc1cc(-c2cn[nH]c2-c2cc(C)cc(OC)c2)nc(-c2cccnc2)n1 | inactive
COc1ccc(/C(C)=C(/c2ccc(OCCCN(C)C)cc2)c2ccc(OC(=O)c3ccccc3)cc2)cc1 | inactive
O=C(O)c1ccc(-c2ccc(/C=N/Nc3nc(Nc4ccccc4)nc(N4CCCCC4)n3)o2)cc1 | inactive
CC1=C2[C@@H](CC1)[C@]1(C)O[C@@](c3ccccc3)(C[C@H]1OC(=O)CO)[C@H]2OC(=O)/C=C/c1ccccc1 | inactive
COc1ccc(NC(=O)Nc2ccc(OCCCCCC(=O)NO)cc2)cc1 | inactive
C/C=C(\C)C(=O)N[C@H]1C(O)C[C@]2(C)C3CC[C@@]4(C)C(CC[C@@H]4C(C)N(C)C)C3CCC2C1O (stereo not given in full) | inactive
CCN(CC)CCN1C(=O)c2c(c(C)c3c(oc4ccc(OC)cc43)c2C)C1=O | inactive
CC(=C(c1ccc(OCCN2CCCCC2)cc1)c1ccc(OCCN2CCCCC2)cc1)c1ccc(Cl)cc1 | active
COc1cc(OC)c(/C=C/C(=O)c2c(O)cc(OC)c(C3CCN(C)CC3)c2OC)c(OC)c1 | active
Cc1ccc(C(=O)Nc2cccc(C#Cc3cccc4[nH]nc(N)c34)c2)cc1C(F)(F)F | inactive
COc1ccc(/C=C/C(=O)c2cc(OC)c(OC)c(OC)c2)cc1OCC(=O)Nc1nc2ccc(OC(F)(F)F)cc2s1 | active
COC(=O)c1nc(-c2ccccc2)oc1S(=O)(=O)NCC(c1ccc(Cl)cc1)N1CCOCC1 (stereo not given) | inactive
Cc1cccc2c1C[C@@]1(C2=O)C(c2ccc(C(C)(C)C)cc2)=NOS1=O (stereo not given in full) | inactive
CCNC(=O)Oc1ccc(/C(=C(/CC)Cc2ccccc2)c2ccc(OCCN3CCCC3)cc2)cc1 | inactive
O=C1/C(=C\c2ccccn2)c2ccccc2N1c1c(Cl)cccc1Cl | active
CC1CCN(C(=S)SCC(=O)NC(=O)c2ccccc2)CC1 | inactive
O=C(/C=C(O)/C=C/c1cccc2[nH]ccc12)/C=C/c1cccc2[nH]ccc12 | inactive
COc1ccc(/C=C/C(=O)c2ccc(NC(=O)CSc3nc4c([nH]3)c(=O)n(C)c(=O)n4C)cc2)cc1OC | inactive
C/C=C(/C)n1cnc2c(Nc3ccccn3)nc(Cl)nc21 | inactive
COc1ccc(-c2nc3c(N)c(CO)cnc3s2)cc1 | inactive
N=C(N)c1ccc(-c2ccc(-c3cc(Cl)cc(Cl)c3)s2)nc1 | inactive
O=C(NNc1cnccn1)c1nc2cc(F)ccc2n2cccc12 | inactive
